Provenance of the data: patent US20070219186A1

I'd be grateful if you could share measured pIC50 for these entries.
# target under test: human B-Raf (Homo sapiens, UniProt P15056)
# Construct: Flag; GST; made in house; host or cells: Sf9 insect cells (B-Raf); E. coli (MEK1-GST)
# Sequence (P15056 whole entry): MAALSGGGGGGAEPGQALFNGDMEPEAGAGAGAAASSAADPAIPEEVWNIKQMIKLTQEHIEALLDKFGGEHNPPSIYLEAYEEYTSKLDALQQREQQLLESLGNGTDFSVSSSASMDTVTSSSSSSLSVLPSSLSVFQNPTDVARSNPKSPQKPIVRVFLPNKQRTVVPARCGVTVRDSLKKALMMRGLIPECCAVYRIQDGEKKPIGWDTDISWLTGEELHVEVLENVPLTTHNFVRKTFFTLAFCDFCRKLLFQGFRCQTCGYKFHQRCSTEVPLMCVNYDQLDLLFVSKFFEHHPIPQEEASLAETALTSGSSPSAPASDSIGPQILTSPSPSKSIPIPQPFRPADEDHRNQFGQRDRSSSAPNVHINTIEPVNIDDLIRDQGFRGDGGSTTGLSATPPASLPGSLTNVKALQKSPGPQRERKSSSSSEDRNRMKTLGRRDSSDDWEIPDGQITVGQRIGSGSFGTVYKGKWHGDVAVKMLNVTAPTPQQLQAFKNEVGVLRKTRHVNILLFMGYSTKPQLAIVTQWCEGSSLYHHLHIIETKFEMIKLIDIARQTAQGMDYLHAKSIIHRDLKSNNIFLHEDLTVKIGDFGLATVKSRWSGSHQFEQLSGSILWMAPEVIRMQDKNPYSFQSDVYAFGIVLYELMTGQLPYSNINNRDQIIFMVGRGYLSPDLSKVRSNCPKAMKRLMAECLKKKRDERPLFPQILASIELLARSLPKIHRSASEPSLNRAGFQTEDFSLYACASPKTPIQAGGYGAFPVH
# assay notes: B-Raf Kinase to MEK1 ELISA
# Format: biochemical
Numbers only, as −log10 of the molar value.

>>> print(df.to_string())
                            molecule_smiles  measure_name  endpoint_value
0  O=C(Nc1cccc(-c2ccnc3c(-c4ccccc4C(F)(F)F)cnn23)c1)c1cccc(C(F)(F)F)c1         pIC50            6.44
1  O=C(Nc1cccc(-c2ccnc3cc(-c4ccnc(NCCCN5CCCC5=O)c4)nn23)c1)c1cccc(C(F)(F)F)c1         pIC50            6.95
2  COc1ccc(C(=O)Nc2cccc(-c3ccnc4c(-c5ccncc5)cnn34)c2)cc1C(F)(F)F         pIC50            6.44
3  COc1ccc(C(=O)Nc2cccc(-c3ccnc4c(Br)cnn34)c2)cc1C(F)(F)F         pIC50            5.68
4  O=C(Nc1cccc(-c2ccnc3c(-c4ccc(F)nc4)cnn23)c1)c1cccc(C(F)(F)F)c1         pIC50            4.97

Okay, here is my list. What is pIC50 for each of these?
1. CN(C)c1ccc(-c2cnn3c(-c4cccc(NC(=O)c5cccc(C(F)(F)F)c5)c4)ccnc23)cc1
2. COc1ccc(C(=O)Nc2cccc(-c3ccnc4c(-c5cccnc5)cnn34)c2)cc1C(F)(F)F

6.52
6.85
